Data credit: paper PMC9482650

# test_system: T1, LIN7C, Q9NUP9
# T1 sequence (Q9NUP9 88-185, limits assumed, looked up): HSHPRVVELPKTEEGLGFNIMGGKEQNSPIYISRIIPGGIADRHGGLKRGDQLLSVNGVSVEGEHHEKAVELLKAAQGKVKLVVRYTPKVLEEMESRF
# protocol: holdup assay
# Set-up: key: below the threshold = too weak to quantify, mostly under pKd 3.1 to 4
# condition_label: plain residues with an end cap or a label only (N-terminal biotin on a linker: ado-ado)
property_measured: pKd

Q. Given the binder QMNQTLPVQV [EPHB3, P54753] , what is its reported pKd?
A. below the threshold

Q. Given the binder TASPAKETSF [SLC2A7, Q6PXP3] , what is its reported pKd?
A. 4.36

Q. Given the binder SKENVQETQI [LRRC4B, Q9NT99] , what is its reported pKd?
A. 3.88

Q. Given the binder DDEDRLVIEI [ZNF831, Q5JPB2] , what is its reported pKd?
A. below the threshold

Further cases:
Q. Given the binder VNKSKLLTDV [KCNA1, Q09470] , what is its reported pKd?
A. below the threshold

Q. Given the binder TACCHSETVV [TGFA, P01135] , what is its reported pKd?
A. below the threshold

Q. Given the binder HSGYRLNDYV [CLDN14, O95500] , what is its reported pKd?
A. below the threshold

Q. Given the binder TPPAAKKSRI [BAZ1A, Q9NRL2] , what is its reported pKd?
A. below the threshold

Q. Given the binder QSPANIYYKV [EFNB1, P52799] , what is its reported pKd?
A. below the threshold

Q. Given the binder SKSNFGSEPL [KIF17, Q9P2E2] , what is its reported pKd?
A. 4.09
